# Procedure summary: folding stability dG unfold from chymotrypsin proteolysis; higher = more stable
Can you tell me folding stability dG unfold for the items I'm about to list?
Please reply with the bare figure in kcal/mol and do not write the unit itself.

Input SAGGSMEIVKKETFTLEDGRKIEVVYDKETNKYVVKIYNKETGEEVEITVKSKEEAEEALKKLLEESAGGSA [r2_70_TrROS_Hall] . Output folding stability dG unfold: 3.76

The reported folding stability dG unfold of the sequence SAGGSAGGSAGGSKYEIEILKIEELEDDSYRITAKINIPEAGTTEEITLTVPKGVELKLSAGGSAGGSAGGS [r4_133_TrMRF] was 1.21

Item: SAGGSAGGMLLSSEEELEEELKRVREEGIGEVEVQVVDEKGNIHTLPTFVENPGPEPLPNEKLLSAGGSAGG [r6_258_JUSTAS] | folding stability dG unfold: 0.643

Memo: SAGGSAGGSAGGGMMLAEFLKYDPRNPTATVVSVRTFSDPEEARAEAEKRGLLVRVIEPSAGGSAGGSAGGS [r10_657_JUSTAS] , reported folding stability dG unfold: 0.0192

Looking up SAGGSAGGSAGGGKKKVTVEFVIKVPKNSKPVFFTIKGGIKVEFYPIPDTNYALVKVTFGSAGGSAGGSAGG [r7_796_TrMRF] , I see its folding stability dG unfold listed as 3.92

The recorded folding stability dG unfold for SAGGSAGGSLMIPIPPGKPINIKFEIKNDDGHPMRITETYPVKNGYYVIRVENPNGNEQIIPFSAGGSAGGS [r12_31_TrROS] is -0.271

Please fill in: folding stability dG unfold reported for SAGGSAGGSAGGSGMVNLPEPIKVTKEEPLPDGSVRYTIEYPDSTITVFKYPDGIKIESSAGGSAGGSAGGS [r4_280_JUSTAS] = 0.29

Reference for the values: the supplement of paper PMC12764529
